Values were extracted from patent US5817826A.

- study_system: cytosolic PLA2 (Homo sapiens)
- Sequence (P47712 whole entry): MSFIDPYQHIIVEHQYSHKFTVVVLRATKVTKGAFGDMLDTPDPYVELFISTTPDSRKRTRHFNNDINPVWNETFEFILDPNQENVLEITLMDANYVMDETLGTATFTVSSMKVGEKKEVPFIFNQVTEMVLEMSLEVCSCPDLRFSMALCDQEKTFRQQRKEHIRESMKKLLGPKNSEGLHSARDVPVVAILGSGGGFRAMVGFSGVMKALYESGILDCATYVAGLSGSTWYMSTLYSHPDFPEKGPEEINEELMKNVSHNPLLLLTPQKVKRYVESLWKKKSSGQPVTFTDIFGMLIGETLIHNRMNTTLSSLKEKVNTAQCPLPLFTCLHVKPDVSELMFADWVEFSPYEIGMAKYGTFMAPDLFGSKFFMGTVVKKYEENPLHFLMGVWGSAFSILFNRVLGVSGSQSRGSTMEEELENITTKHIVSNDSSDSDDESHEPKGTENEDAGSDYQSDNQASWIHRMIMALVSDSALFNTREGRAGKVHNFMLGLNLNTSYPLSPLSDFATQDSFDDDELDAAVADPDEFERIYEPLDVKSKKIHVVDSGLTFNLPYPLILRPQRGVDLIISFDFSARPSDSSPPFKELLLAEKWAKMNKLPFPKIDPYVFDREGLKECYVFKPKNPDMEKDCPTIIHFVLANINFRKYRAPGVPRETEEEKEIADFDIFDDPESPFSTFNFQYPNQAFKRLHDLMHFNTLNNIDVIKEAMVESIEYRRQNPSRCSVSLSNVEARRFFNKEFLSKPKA
- measurement_protocol: Cytosolic PLA2 inhibition activity (sonicated liposomes with 1-palmitoyl-2-[14C]arachidonyl-sn-glycero-3-phosphocholine)
- Format: biochemical
- protocol_conditions: compound at 2 μM; relative to enzyme control
measured_endpoint: inhibition at 2 µM (%)

Incoming: Supply measured inhibition at 2 µM of `O=c1oc(-c2ccccc2)c(-c2ccccc2)n1Cc1ccc(Cl)s1` in your reply.
Outgoing: 19

A. O=C1O[C@H](c2ccccc2)[C@@H](c2ccccc2)N1Cc1ccc(Cl)s1
B. CC(C)=CCC/C(C)=C/CN1C(=O)O[C@@H](c2ccccc2)[C@@H]1c1ccccc1
Incoming: Lab notebook, comparison: A versus B , higher inhibition at 2 µM goes to which? Answer by stating the label of the chosen item.
Outgoing: B
